Assay: NCI Yeast Anticancer Drug Screen. Data for the mec2-1 strain (AID 157)
Conditions: S. cerevisiae mec2-1 strain, at 50.0 µM
Compounds without any hit were thinned out: in the full panel of roughly 79,000, 15% have a hit. Active and inactive are the calls of the source. No stated cut-off is given here; in the data, active means growth inhibition above about 70%; inactive means the rest.
// allowed return values: active, inactive

Task: What classification did Cc1cc(N(CCCl)CCCl)ccc1C1N(Cc2ccc(N(CCCl)CCCl)cc2Cl)CCCN1Cc1ccc(N(CCCl)CCCl)cc1Cl end up with in this test?
Result: active

Task: What classification did O=C(C1CO1)C(Cl)(Cl)Cl (stereo not given) end up with in this test?
Result: inactive

Task: What classification did COc1ccccc1CC(C)N (stereo not given) end up with in this test?
Result: inactive

Task: What classification did O=C(c1ccccc1)C1C(C(=O)c2ccccc2)N1C1CCCCC1 (stereo not given) end up with in this test?
Result: inactive

Task: What classification did Clc1ccc(C2ON2c2ccccc2)cc1 (stereo not given) (tested in a mixture with another compound) end up with in this test?
Result: inactive

Task: What classification did COc1c(Cl)[c]([Hg][O]C(C)=O)c(NCC(C)=O)c(OC)[c]1[Hg][O]C(C)=O end up with in this test?
Result: active

Task: What classification did C[C@]12CCC(O)CC1=CC[C@@H]1[C@@H]2CC[C@]2(C)C(O)[C@H](n3ccnc3)C[C@@H]12 (stereo not given in full) end up with in this test?
Result: inactive

Task: What classification did ClCc1cccc2ccccc12 end up with in this test?
Result: inactive

Task: What classification did C=C1C(=O)O[C@@H]2C[C@@H](C)[C@@H]3C=CC(=O)[C@@]3(C)[C@@H](O)[C@H]12 end up with in this test?
Result: inactive

Task: What classification did Nc1ccc([As]=[As]c2ccc(N)cc2)cc1 (stereo not given) end up with in this test?
Result: active
